# System: SK-OV-3 ovarian
# assay-overview: NCI-60 one-dose screen, 48 h (100 = growth as untreated, 0 = no growth, -100 = all killed)
# condition-label: 10 µM unless noted
The panel holds about 83,000 compounds, 20% with a hit somewhere; the sample as a whole holds those more often.
Entries and their growth values follow.
Output spec: scalar in %, unitless text.

Please review the entries below; each comes with its answer.
| compound | assay-target | growth / % |
| --- | --- | --- |
| Cc1cc(C)c(S(=O)(=O)Oc2ccccc2[N+](=O)[O-])c(C)c1 | SK-OV-3 ovarian | 41.2 |
| CCCCCCCCCCCCCCCC[N+]1(C)CCN(SN2CC[N+](C)(CCCCCCCCCCCCCCCC)CC2)CC1 | SK-OV-3 ovarian | 124 |
| N/C(=N\C(N)=N\c1nc2ccccc2s1)c1cccc(Cl)c1 | SK-OV-3 ovarian | 98.3 |
| Cc1ccc(-n2cc(-c3ccccc3)c3c2N=NN2CCN=C32)cc1 | SK-OV-3 ovarian | 104 |
| CCCCOc1ccc(/C(C)=N/Nc2cc(C)nc3ccc(Br)cc23)cc1 | SK-OV-3 ovarian | 89.4 |
| O=C(Cc1ccccc1)NNc1nc(Cl)nc(N2CCN(C(c3ccccc3)c3ccccc3)CC2)n1 | SK-OV-3 ovarian | 105 |
| COc1ccc(C(=O)c2nc3ccccc3n2CC(=O)c2ccc(F)cc2)cc1 | SK-OV-3 ovarian | 116 |
| COc1cc(/C(C)=C(\c2ccc(Cl)cc2)c2ccc(OCCN(C)C)cc2)ccc1F | SK-OV-3 ovarian | 111 |
| CC(Oc1ccc(C(=O)O)cc1C(F)(F)F)c1ccc(Oc2ccccc2)cn1 (stereo not given) | SK-OV-3 ovarian | 124 |

Alright, here's another compound for you.
**Query** Form field - read-out: growth; system: SK-OV-3 ovarian; submitted item: O=C(Nc1cccc(C2=NCCN2)c1)c1ccc(-c2ccc(C(=O)Nc3cccc(C4=NCCN4)c3)cc2)cc1
**Result** 111

Provenance of the data: PubChem BioAssay (NCI)
